Tested on: T-47D spheroids with HUVEC/MSC, viability
protocol details: Anticancer human tumor T-47D cell line growth inhibition [PI3K];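 also: spheroids exposed to agents for seven days before reading; percent of DMSO vehicle control luminescence so 100% = untreated growth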
measurement parameters: second compound 0.1 µM; first compound 0.1 µM; stronger effect = lower value
Labelling field: enter Met if recorded viability, T/C is less than 70%. Enter Not met if it equals or exceeds that cut-off.

**Query** Bench note: check whether CC(C)NCC(C(=O)N1CCN(c2ncnc3c2C(C)CC3O)CC1)c1ccc(Cl)cc1 (stereo unspecified) + Cc1nc(NC(=O)N2CCCC2C(N)=O)sc1-c1ccnc(C(C)(C)C(F)(F)F)c1 shows viability, T/C below 70%
**Result** Not met

**Query** Bench note: check whether C=CC(=O)N1CCN(c2nc(=O)n(-c3c(C)ccnc3C(C)C)c3nc(-c4c(O)cccc4F)c(F)cc23)C(C)C1 (stereo unspecified) + COc1c(OCCCN2CCOCC2)ccc2c3n(c(=NC(=O)c4cnc(N)nc4)nc12)CCN3 shows viability, T/C below 70%
**Result** Met

**Query** Bench note: check whether Cn1ncc(Cl)c1-c1cc(C(=O)NC(CN)Cc2cccc(F)c2)sc1Cl (stereo unspecified) + COc1c(OCCCN2CCOCC2)ccc2c3n(c(=NC(=O)c4cnc(N)nc4)nc12)CCN3 shows viability, T/C below 70%
**Result** Met

**Query** Bench note: check whether CCCS(=O)(=O)Nc1ccc(F)c(C(=O)c2c[nH]c3ncc(-c4ccc(Cl)cc4)cc23)c1F + COc1c(OCCCN2CCOCC2)ccc2c3n(c(=NC(=O)c4cnc(N)nc4)nc12)CCN3 shows viability, T/C below 70%
**Result** Met

**Query** Bench note: check whether C[C@@H](NC(=O)c1ncnc(N)c1Cl)c1ncc(C(=O)Nc2cc(C(F)(F)F)c(Cl)cn2)s1 + CC(Nc1ncnc2nc[nH]c12)c1cc2cccc(Cl)c2c(=O)n1-c1ccccc1 shows viability, T/C below 70%
**Result** Not met

**Query** Bench note: check whether CNC(=O)c1ccc(N2C(=S)N(c3ccc(C#N)c(C(F)(F)F)c3)C(=O)C2(C)C)cc1F + Cc1nc(NC(=O)N2CCCC2C(N)=O)sc1-c1ccnc(C(C)(C)C(F)(F)F)c1 shows viability, T/C below 70%
**Result** Not met

**Query** Bench note: check whether Cn1nccc1Nc1nccc(-c2ccn(C(CO)c3ccc(Cl)c(F)c3)c(=O)c2)n1 (stereo unspecified) + COc1c(OCCCN2CCOCC2)ccc2c3n(c(=NC(=O)c4cnc(N)nc4)nc12)CCN3 shows viability, T/C below 70%
**Result** Met

**Query** Bench note: check whether CC(Cn1ccc(-c2ccc(C#N)c(Cl)c2)n1)NC(=O)c1cc(C(C)O)[nH]n1 (stereo unspecified) + COc1c(OCCCN2CCOCC2)ccc2c3n(c(=NC(=O)c4cnc(N)nc4)nc12)CCN3 shows viability, T/C below 70%
**Result** Met

**Query** Bench note: check whether CC(C)n1nc(-c2ccc3oc(N)nc3c2)c2c(N)ncnc21 + COc1c(OCCCN2CCOCC2)ccc2c3n(c(=NC(=O)c4cnc(N)nc4)nc12)CCN3 shows viability, T/C below 70%
**Result** Met

**Query** Bench note: check whether CNC(=O)c1ccc(N2C(=S)N(c3ccc(C#N)c(C(F)(F)F)c3)C(=O)C2(C)C)cc1F + COc1c(OCCCN2CCOCC2)ccc2c3n(c(=NC(=O)c4cnc(N)nc4)nc12)CCN3 shows viability, T/C below 70%
**Result** Met

**Query** Bench note: check whether CC1(C)CCC(Nc2ncc(C(F)(F)F)c(-c3c[nH]c4c(P(C)(C)=O)c(C#N)ccc34)n2)CN1 (stereo unspecified) + Cc1nc(NC(=O)N2CCCC2C(N)=O)sc1-c1ccnc(C(C)(C)C(F)(F)F)c1 shows viability, T/C below 70%
**Result** Met

---

System: T-47D spheroids with HUVEC/MSC, viability
protocol details: Anticancer human tumor T-47D cell line growth inhibition [PI3K];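 also: spheroids exposed to agents for seven days before reading; percent of DMSO vehicle control luminescence so 100% = untreated growth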
measurement parameters: second compound 0.00316 µM; first compound 0.1 µM; stronger effect = lower value
Labelling field: enter fulfilled if recorded viability, T/C is less than 90%. Enter not fulfilled if it equals or exceeds that cut-off.

**Query** Bench note: check whether C=CC(=O)N1CCN(c2nc(=O)n(-c3c(C)ccnc3C(C)C)c3nc(-c4c(O)cccc4F)c(F)cc23)C(C)C1 (stereo not given) + COc1c(OCCCN2CCOCC2)ccc2c3n(c(=NC(=O)c4cnc(N)nc4)nc12)CCN3 shows viability, T/C below 90%
**Result** not fulfilled

**Query** Bench note: check whether CC(=O)c1c(C)c2cnc(Nc3ccc(N4CCNCC4)cn3)nc2n(C2CCCC2)c1=O + CC(Nc1ccc2c(c1)OCCn1cc(N3C(=O)OCC3C(F)F)nc1-2)C(N)=O shows viability, T/C below 90%
**Result** fulfilled

**Query** Bench note: check whether C=CC(=O)N1CCN(c2nc(=O)n(-c3c(C)ccnc3C(C)C)c3nc(-c4c(O)cccc4F)c(F)cc23)C(C)C1 (stereo not given) + CC(Nc1ccc2c(c1)OCCn1cc(N3C(=O)OCC3C(F)F)nc1-2)C(N)=O shows viability, T/C below 90%
**Result** not fulfilled

**Query** Bench note: check whether CC1(C)CCC(CN2CCN(c3ccc(C(=O)NS(=O)(=O)c4ccc(NCC5CCOCC5)c([N+](=O)[O-])c4)c(Oc4cnc5[nH]ccc5c4)c3)CC2)=C(c2ccc(Cl)cc2)C1 + CC(Nc1ccc2c(c1)OCCn1cc(N3C(=O)OCC3C(F)F)nc1-2)C(N)=O shows viability, T/C below 90%
**Result** not fulfilled

**Query** Bench note: check whether Cn1ncc(Cl)c1-c1cc(C(=O)NC(CN)Cc2cccc(F)c2)sc1Cl (stereo not given) + CC(Nc1ccc2c(c1)OCCn1cc(N3C(=O)OCC3C(F)F)nc1-2)C(N)=O shows viability, T/C below 90%
**Result** fulfilled

**Query** Bench note: check whether CC1(C)CCC(CN2CCN(c3ccc(C(=O)NS(=O)(=O)c4ccc(NCC5CCOCC5)c([N+](=O)[O-])c4)c(Oc4cnc5[nH]ccc5c4)c3)CC2)=C(c2ccc(Cl)cc2)C1 + COc1c(OCCCN2CCOCC2)ccc2c3n(c(=NC(=O)c4cnc(N)nc4)nc12)CCN3 shows viability, T/C below 90%
**Result** fulfilled

**Query** Bench note: check whether C[C@@H](NC(=O)c1ncnc(N)c1Cl)c1ncc(C(=O)Nc2cc(C(F)(F)F)c(Cl)cn2)s1 + COc1c(OCCCN2CCOCC2)ccc2c3n(c(=NC(=O)c4cnc(N)nc4)nc12)CCN3 shows viability, T/C below 90%
**Result** fulfilled

---

Test system: T-47D spheroids with HUVEC/MSC, viability
protocol details: Anticancer human tumor T-47D cell line growth inhibition [PI3K];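 also: spheroids exposed to agents for seven days before reading; percent of DMSO vehicle control luminescence so 100% = untreated growth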
measurement parameters: second compound 0.1 µM; first compound 0.1 µM; stronger effect = lower value
Task for the reader: assign each of the following molecules its reported viability, T/C.
Respond numerically; units are % and should not be typed.

Looking up C=CC(=O)N1CCN(c2nc(=O)n(-c3c(C)ccnc3C(C)C)c3nc(-c4c(O)cccc4F)c(F)cc23)C(C)C1 (stereo not given) + CC(Nc1ccc2c(c1)OCCn1cc(N3C(=O)OCC3C(F)F)nc1-2)C(N)=O , I see its viability, T/C listed as 83.6

Looking up CC1(C)CCC(CN2CCN(c3ccc(C(=O)NS(=O)(=O)c4ccc(NCC5CCOCC5)c([N+](=O)[O-])c4)c(Oc4cnc5[nH]ccc5c4)c3)CC2)=C(c2ccc(Cl)cc2)C1 + COc1c(OCCCN2CCOCC2)ccc2c3n(c(=NC(=O)c4cnc(N)nc4)nc12)CCN3 , I see its viability, T/C listed as 42.3

Looking up C#Cc1c(F)ccc2cc(O)cc(-c3ncc4c(N5CC6CCC(C5)N6)nc(OCC56CCCN5CC(F)C6)nc4c3F)c12 (stereo not given) + CC(Nc1ccc2c(c1)OCCn1cc(N3C(=O)OCC3C(F)F)nc1-2)C(N)=O , I see its viability, T/C listed as 83

Looking up C=CC(=O)N1CCN(c2nc(=O)n(-c3c(C)ccnc3C(C)C)c3nc(-c4c(O)cccc4F)c(F)cc23)C(C)C1 (stereo not given) + CC(Nc1ncnc2nc[nH]c12)c1cc2cccc(Cl)c2c(=O)n1-c1ccccc1 , I see its viability, T/C listed as 73

Looking up CC(C)NCC(C(=O)N1CCN(c2ncnc3c2C(C)CC3O)CC1)c1ccc(Cl)cc1 (stereo not given) + CC(Nc1ccc2c(c1)OCCn1cc(N3C(=O)OCC3C(F)F)nc1-2)C(N)=O , I see its viability, T/C listed as 81.2

Looking up Cn1nccc1Nc1nccc(-c2ccn(C(CO)c3ccc(Cl)c(F)c3)c(=O)c2)n1 (stereo not given) + CC(Nc1ncnc2nc[nH]c12)c1cc2cccc(Cl)c2c(=O)n1-c1ccccc1 , I see its viability, T/C listed as 99.9

Looking up CCN1CCN(Cc2ccc(Nc3ncc(F)c(-c4cc(F)c5nc(C)n(C(C)C)c5c4)n3)nc2)CC1 + CC(Nc1ncnc2nc[nH]c12)c1cc2cccc(Cl)c2c(=O)n1-c1ccccc1 , I see its viability, T/C listed as 96

Looking up CC(=O)c1c(C)c2cnc(Nc3ccc(N4CCNCC4)cn3)nc2n(C2CCCC2)c1=O + COc1c(OCCCN2CCOCC2)ccc2c3n(c(=NC(=O)c4cnc(N)nc4)nc12)CCN3 , I see its viability, T/C listed as 27.1

Looking up CC1(C)CCC(CN2CCN(c3ccc(C(=O)NS(=O)(=O)c4ccc(NCC5CCOCC5)c([N+](=O)[O-])c4)c(Oc4cnc5[nH]ccc5c4)c3)CC2)=C(c2ccc(Cl)cc2)C1 + CC(Nc1ncnc2nc[nH]c12)c1cc2cccc(Cl)c2c(=O)n1-c1ccccc1 , I see its viability, T/C listed as 96

Looking up Cn1ncnc1[C@H]1c2n[nH]c(=O)c3cc(F)cc(c23)N[C@@H]1c1ccc(F)cc1 + COc1c(OCCCN2CCOCC2)ccc2c3n(c(=NC(=O)c4cnc(N)nc4)nc12)CCN3 , I see its viability, T/C listed as 39

Looking up C=CC(=O)N1CCN(c2nc(=O)n(-c3c(C)ccnc3C(C)C)c3nc(-c4c(O)cccc4F)c(F)cc23)C(C)C1 (stereo not given) + Cc1nc(NC(=O)N2CCCC2C(N)=O)sc1-c1ccnc(C(C)(C)C(F)(F)F)c1 , I see its viability, T/C listed as 89.7

Looking up CC(Cn1ccc(-c2ccc(C#N)c(Cl)c2)n1)NC(=O)c1cc(C(C)O)[nH]n1 (stereo not given) + Cc1nc(NC(=O)N2CCCC2C(N)=O)sc1-c1ccnc(C(C)(C)C(F)(F)F)c1 , I see its viability, T/C listed as 88.2

Looking up CC(Cn1ccc(-c2ccc(C#N)c(Cl)c2)n1)NC(=O)c1cc(C(C)O)[nH]n1 (stereo not given) + CC(Nc1ccc2c(c1)OCCn1cc(N3C(=O)OCC3C(F)F)nc1-2)C(N)=O , I see its viability, T/C listed as 76.5

Looking up Cn1ncnc1[C@H]1c2n[nH]c(=O)c3cc(F)cc(c23)N[C@@H]1c1ccc(F)cc1 + CC(Nc1ncnc2nc[nH]c12)c1cc2cccc(Cl)c2c(=O)n1-c1ccccc1 , I see its viability, T/C listed as 93.3

Looking up Cn1nccc1Nc1nccc(-c2ccn(C(CO)c3ccc(Cl)c(F)c3)c(=O)c2)n1 (stereo not given) + Cc1nc(NC(=O)N2CCCC2C(N)=O)sc1-c1ccnc(C(C)(C)C(F)(F)F)c1 , I see its viability, T/C listed as 95.2

Looking up CC1(C)CCC(Nc2ncc(C(F)(F)F)c(-c3c[nH]c4c(P(C)(C)=O)c(C#N)ccc34)n2)CN1 (stereo not given) + CC(Nc1ccc2c(c1)OCCn1cc(N3C(=O)OCC3C(F)F)nc1-2)C(N)=O , I see its viability, T/C listed as 65.2

Looking up CC1(C)CCC(CN2CCN(c3ccc(C(=O)NS(=O)(=O)c4ccc(NCC5CCOCC5)c([N+](=O)[O-])c4)c(Oc4cnc5[nH]ccc5c4)c3)CC2)=C(c2ccc(Cl)cc2)C1 + Cc1nc(NC(=O)N2CCCC2C(N)=O)sc1-c1ccnc(C(C)(C)C(F)(F)F)c1 , I see its viability, T/C listed as 92.3

Looking up CC(C)NCC(C(=O)N1CCN(c2ncnc3c2C(C)CC3O)CC1)c1ccc(Cl)cc1 (stereo not given) + COc1c(OCCCN2CCOCC2)ccc2c3n(c(=NC(=O)c4cnc(N)nc4)nc12)CCN3 , I see its viability, T/C listed as 40.7

Looking up CC(=O)c1c(C)c2cnc(Nc3ccc(N4CCNCC4)cn3)nc2n(C2CCCC2)c1=O + CC(Nc1ncnc2nc[nH]c12)c1cc2cccc(Cl)c2c(=O)n1-c1ccccc1 , I see its viability, T/C listed as 83.6

Looking up CC(C)NCC(C(=O)N1CCN(c2ncnc3c2C(C)CC3O)CC1)c1ccc(Cl)cc1 (stereo not given) + CC(Nc1ncnc2nc[nH]c12)c1cc2cccc(Cl)c2c(=O)n1-c1ccccc1 , I see its viability, T/C listed as 75.5
